testTarget: SMARCA2-HiBiT HeLa cells (protein which is expressed from the SMARCA2 gene) (Homo sapiens)
Construct: protein which is expressed from the SMARCA2 and SMARCA4 genes; host or cells: HeLa (SMARCA2-HiBiT engineered line)
Sequence (P51531 whole entry): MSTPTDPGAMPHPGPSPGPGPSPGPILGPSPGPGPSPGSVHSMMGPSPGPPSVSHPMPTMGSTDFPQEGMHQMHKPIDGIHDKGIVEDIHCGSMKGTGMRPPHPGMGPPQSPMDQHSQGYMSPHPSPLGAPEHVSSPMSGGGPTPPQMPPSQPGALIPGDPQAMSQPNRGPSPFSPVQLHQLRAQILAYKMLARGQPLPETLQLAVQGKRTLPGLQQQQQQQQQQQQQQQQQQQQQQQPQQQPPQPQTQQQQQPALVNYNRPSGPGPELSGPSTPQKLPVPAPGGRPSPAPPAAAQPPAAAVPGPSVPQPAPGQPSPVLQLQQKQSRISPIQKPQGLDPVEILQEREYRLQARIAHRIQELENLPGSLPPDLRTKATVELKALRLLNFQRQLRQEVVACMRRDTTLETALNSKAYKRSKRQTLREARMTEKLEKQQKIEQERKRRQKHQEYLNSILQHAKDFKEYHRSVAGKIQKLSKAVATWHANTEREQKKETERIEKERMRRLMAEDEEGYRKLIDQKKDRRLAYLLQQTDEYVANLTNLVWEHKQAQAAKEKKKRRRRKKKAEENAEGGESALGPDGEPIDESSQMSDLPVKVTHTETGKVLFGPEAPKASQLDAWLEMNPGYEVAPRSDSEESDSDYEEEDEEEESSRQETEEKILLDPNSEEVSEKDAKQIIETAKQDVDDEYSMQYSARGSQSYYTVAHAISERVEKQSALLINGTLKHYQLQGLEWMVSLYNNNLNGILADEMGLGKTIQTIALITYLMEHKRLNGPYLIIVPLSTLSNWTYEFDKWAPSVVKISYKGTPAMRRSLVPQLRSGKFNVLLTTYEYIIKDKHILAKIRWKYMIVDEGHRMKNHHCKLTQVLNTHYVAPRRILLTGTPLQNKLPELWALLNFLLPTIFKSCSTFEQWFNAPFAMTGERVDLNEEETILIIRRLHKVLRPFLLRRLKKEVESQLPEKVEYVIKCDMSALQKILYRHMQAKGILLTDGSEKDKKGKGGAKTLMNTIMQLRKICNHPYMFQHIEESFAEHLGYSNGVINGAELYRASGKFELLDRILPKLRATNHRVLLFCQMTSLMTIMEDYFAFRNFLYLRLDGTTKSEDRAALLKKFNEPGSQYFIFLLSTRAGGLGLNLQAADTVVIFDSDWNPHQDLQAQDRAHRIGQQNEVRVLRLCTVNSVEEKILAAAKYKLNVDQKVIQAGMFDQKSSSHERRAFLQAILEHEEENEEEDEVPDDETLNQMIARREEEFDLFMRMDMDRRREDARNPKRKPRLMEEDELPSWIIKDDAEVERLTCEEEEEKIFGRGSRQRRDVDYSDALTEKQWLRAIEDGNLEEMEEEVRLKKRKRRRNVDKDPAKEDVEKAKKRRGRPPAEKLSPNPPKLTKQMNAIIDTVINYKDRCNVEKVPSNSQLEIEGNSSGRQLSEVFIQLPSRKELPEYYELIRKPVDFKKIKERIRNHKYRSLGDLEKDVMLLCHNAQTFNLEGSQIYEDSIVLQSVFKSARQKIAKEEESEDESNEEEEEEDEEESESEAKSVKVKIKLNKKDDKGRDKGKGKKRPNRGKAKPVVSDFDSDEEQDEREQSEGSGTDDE
runDescription: SMARCA2 degradation assay (HiBiT-fusion HeLa cell line, 24 h, luminescence)
Format: cell-based
endpoint: DC50

compound: Nc1nnc(-c2ccccc2O)cc1N1CCCN(c2ccnc(C#CCn3cncn3)n2)CC1 [Compound P-148]
testTarget: SMARCA2-HiBiT HeLa cells (protein which is expressed from the SMARCA2 gene) (Homo sapiens)
result: 0.05 to 0.5 µM

compound: CNCC#Cc1nccc(N2CCCN(c3cc(-c4ccccc4O)nnc3N)CC2)n1 [Compound P-147]
testTarget: SMARCA2-HiBiT HeLa cells (protein which is expressed from the SMARCA2 gene) (Homo sapiens)
result: 0.05 to 0.5 µM

compound: Cn1ccc(C(=O)NCC#Cc2nccc(N3CCN(c4cc(-c5ccccc5O)nnc4N)CC3)n2)n1 [Compound P-7]
testTarget: SMARCA2-HiBiT HeLa cells (protein which is expressed from the SMARCA2 gene) (Homo sapiens)
result: 0.05 to 0.5 µM

compound: CN(C)CC#Cc1nccc(N2CCCN(c3cc(-c4ccccc4O)nnc3N)CC2)n1 [Compound P-152]
testTarget: SMARCA2-HiBiT HeLa cells (protein which is expressed from the SMARCA2 gene) (Homo sapiens)
result: 0.05 to 0.5 µM

compound: Cc1c(C(=O)NCC#Cc2nc(N(C)C)cc(N3CCCN(c4cc(-c5ccccc5O)nnc4N)CC3)n2)nn(C)c1C [Compound P-140]
testTarget: SMARCA2-HiBiT HeLa cells (protein which is expressed from the SMARCA2 gene) (Homo sapiens)
result: 0.5 to 5 µM

Jot down DC50 (SMARCA2-HiBiT HeLa cells (protein which is expressed from the SMARCA2 gene) (Homo sapiens)) of COC[C@H](C)NCC#Cc1nccc(N2CCCN(c3cc(-c4ccccc4O)nnc3N)CC2)n1 [Compound P-276] .
0.05 to 0.5 µM
